Sourced from BindingDB's records for doi:10.1021/jm950817g

assay: Activity was evaluated by inhibition of the binding of 1 nM [3H]DPDPE at Opioid receptor delta 1 binding site
MEASUREMENT NAME: pKi
# log scale: pKi equals minus log10 of the concentration in mol/L

Query: Bench note: what pKi did COCC12Cc3ccc(O)cc3C(C)(CCC1N(C)C)C2 (stereo unspecified) show?
Response: 5.85

Query: Next compound up: CN1CNC2CCC3(C)CC2(Cc2ccc(O)cc23)C1 (stereo unspecified)
Response: 6.06

Query: Next compound up: CNCC12Cc3ccc(O)cc3C(C)(CCC1N)C2 (stereo unspecified)
Response: 6.34

Query: Next compound up: CN(C)C1CCC2(C)CC1(C)Cc1ccc(O)cc12 (stereo unspecified)
Response: 5.00

Query: Next compound up: COCC12Cc3ccc(O)cc3C(C)(CCC1N)C2 (stereo unspecified)
Response: 6.33
